- STUDY_SYSTEM: HDAC8 (Homo sapiens, UniProt Q9BY41)
- Sequence (Q9BY41 1-377): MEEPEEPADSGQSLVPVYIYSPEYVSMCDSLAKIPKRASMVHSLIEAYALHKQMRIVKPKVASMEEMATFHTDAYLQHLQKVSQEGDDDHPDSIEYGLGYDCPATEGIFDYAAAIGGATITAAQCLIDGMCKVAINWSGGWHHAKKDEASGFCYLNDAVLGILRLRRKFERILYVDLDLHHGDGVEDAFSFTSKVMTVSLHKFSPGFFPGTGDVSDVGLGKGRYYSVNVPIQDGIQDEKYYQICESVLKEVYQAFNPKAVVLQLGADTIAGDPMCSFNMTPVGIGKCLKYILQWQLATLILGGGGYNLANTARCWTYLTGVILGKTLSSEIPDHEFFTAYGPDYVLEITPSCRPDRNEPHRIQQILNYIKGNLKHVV
Non-standard residues stand in square brackets, D forms with d. Residues, ends and D or L forms follow the SMILES beside them. *: point of attachment. Asu = N[C@@H](CCCCCC(=O)O)C(=O)O; NHOH = ON*
Below: a set of entries, each annotated with reported Ki.

[
  {
    "COMPOUND": "CC(=O)N[C@@H](C)C(=O)N1CCC[C@H]1C(=O)N[C@@H](C)C(=O)N1CCC[C@H]1C(=O)N[C@@H](CCCCN)C(=O)N[C@@H](CCCCCC(=O)NO)C(=O)NCC(=O)N[C@@H](CO)C(=O)N[C@@H](CCCCN)C(=O)N[C@@H](CCCCN)C(=O)N[C@@H](C)C(=O)N[C@H](C(=O)N[C@H](C(=O)N[C@@H](CCCCN)C(=O)N[C@@H](C)C(=O)N[C@@H](CCC(N)=O)C(=O)N[C@@H](Cc1c[nH]c2ccccc12)C(N)=O)[C@@H](C)O)C(C)C [10a] (Ac-APAPK[Asu](NHOH)GSKKAVTKAQW-NH2)",
    "Ki (nM)": 2240
  },
  {
    "COMPOUND": "CC(=O)N1CCC[C@H]1C(=O)N[C@@H](CCCNC(=N)N)C(=O)N[C@@H](CCCCN)C(=O)N[C@@H](CCC(N)=O)C(=O)N[C@@H](CC(C)C)C(=O)N[C@@H](C)C(=O)N[C@H](C(=O)N[C@@H](CCCCN)C(=O)N[C@@H](C)C(=O)N[C@@H](C)C(=O)N[C@@H](CCCNC(=N)N)C(=O)N[C@@H](CCCCCC(=O)NO)C(=O)N[C@@H](CO)C(=O)N[C@@H](C)C(=O)N1CCC[C@H]1C(=O)N[C@@H](C)C(=O)N[C@@H](Cc1c[nH]c2ccccc12)C(N)=O)[C@@H](C)O [14a] (Ac-PRKQLATKAAR[Asu](NHOH)SAPAW-NH2)",
    "Ki (nM)": 55
  }
]

* * *

- STUDY_SYSTEM: HDAC2 (Homo sapiens, UniProt Q92769)
- Construct: HDAC2 (full length, C-terminal His tag, BPS Bioscience, cat. #: 50002)
- Sequence (Q92769 whole entry): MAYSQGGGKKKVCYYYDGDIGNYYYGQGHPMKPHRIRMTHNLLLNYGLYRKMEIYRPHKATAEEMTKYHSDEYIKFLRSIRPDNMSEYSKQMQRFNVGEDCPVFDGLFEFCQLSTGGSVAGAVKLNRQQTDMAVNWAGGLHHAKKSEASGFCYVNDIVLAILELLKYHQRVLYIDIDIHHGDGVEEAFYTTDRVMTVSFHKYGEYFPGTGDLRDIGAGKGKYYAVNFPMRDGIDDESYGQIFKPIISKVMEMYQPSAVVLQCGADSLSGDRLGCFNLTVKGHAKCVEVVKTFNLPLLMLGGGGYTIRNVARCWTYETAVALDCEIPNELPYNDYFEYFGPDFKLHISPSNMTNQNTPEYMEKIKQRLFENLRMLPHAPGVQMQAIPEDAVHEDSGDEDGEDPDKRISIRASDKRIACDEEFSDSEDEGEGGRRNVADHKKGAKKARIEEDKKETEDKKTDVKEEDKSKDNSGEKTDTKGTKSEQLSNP
- PROTOCOL_TEXT: Recombinant HDAC µSPOT microarray binding assay;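 note: Cellulose-bound peptide spots on slides incubated with six HDAC enzyme concentrations, binding intensity read, four-parameter variable-slope fit, EC50 is enzyme concentration giving half-maximal binding, in HEPES buffer pH 7.4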
pEC50: −log10 of the molar value. Non-standard residues stand in square brackets, D forms with d. Residues, ends and D or L forms follow the SMILES beside them. *: point of attachment. Asu = N[C@@H](CCCCCC(=O)O)C(=O)O; NHOH = ON*
Measured pEC50 by item

[
  {
    "COMPOUND": "CC(=O)N1CCC[C@H]1C(=O)N[C@@H](CCCNC(=N)N)C(=O)N[C@@H](CCCCN)C(=O)N[C@@H](CCC(N)=O)C(=O)N[C@@H](CC(C)C)C(=O)N[C@@H](C)C(=O)N[C@H](C(=O)N[C@@H](CCCCN)C(=O)N[C@@H](C)C(=O)N[C@@H](C)C(=O)N[C@@H](CCCNC(=N)N)C(=O)N[C@@H](CCCCCC(=O)NO)C(=O)N[C@@H](CO)C(=O)N[C@@H](C)C(=O)N1CCC[C@H]1C(=O)N[C@@H](C)C(=O)N[C@@H](Cc1c[nH]c2ccccc12)C(N)=O)[C@@H](C)O [14a] (Ac-PRKQLATKAAR[Asu](NHOH)SAPAW-NH2)",
    "CENSORING_OPERATOR": "=",
    "pEC50": 8.55
  },
  {
    "COMPOUND": "CC(=O)N[C@@H](CC(C)C)C(=O)NCC(=O)N[C@@H](CCCCN)C(=O)NCC(=O)NCC(=O)N[C@@H](C)C(=O)N[C@@H](CCCCCC(=O)NO)C(=O)N[C@@H](CCCNC(=N)N)C(=O)N[C@@H](Cc1c[nH]cn1)C(=O)N[C@@H](CCCNC(=N)N)C(=O)N[C@@H](CCCCN)C(=O)N[C@H](C(=O)N[C@@H](CC(C)C)C(=O)N[C@@H](CCCNC(=N)N)C(=O)N[C@@H](CC(=O)O)C(=O)N[C@@H](CC(N)=O)C(=O)N[C@@H](Cc1c[nH]c2ccccc12)C(N)=O)C(C)C [16a] (Ac-LGKGGA[Asu](NHOH)RHRKVLRDNW-NH2)",
    "CENSORING_OPERATOR": "=",
    "pEC50": 8.84
  },
  {
    "COMPOUND": "CC(=O)N[C@@H](C)C(=O)N1CCC[C@H]1C(=O)N[C@@H](C)C(=O)N1CCC[C@H]1C(=O)N[C@@H](CCCCN)C(=O)N[C@@H](CCCCCC(=O)NO)C(=O)NCC(=O)N[C@@H](CO)C(=O)N[C@@H](CCCCN)C(=O)N[C@@H](CCCCN)C(=O)N[C@@H](C)C(=O)N[C@H](C(=O)N[C@H](C(=O)N[C@@H](CCCCN)C(=O)N[C@@H](C)C(=O)N[C@@H](CCC(N)=O)C(=O)N[C@@H](Cc1c[nH]c2ccccc12)C(N)=O)[C@@H](C)O)C(C)C [10a] (Ac-APAPK[Asu](NHOH)GSKKAVTKAQW-NH2)",
    "CENSORING_OPERATOR": "<",
    "pEC50": 7.60
  },
  {
    "COMPOUND": "CC(=O)NCC(=O)NCC(=O)N[C@@H](CCCCCC(=O)NO)C(=O)N[C@@H](C)C(=O)N[C@@H](CCCNC(=N)N)C(=O)N[C@@H](C)C(=O)N[C@@H](CCCCN)C(=O)N[C@@H](C)C(=O)N[C@@H](CCCCN)C(=O)N[C@H](C(=O)N[C@@H](CCCNC(=N)N)C(=O)N[C@@H](CO)C(=O)N[C@@H](CO)C(=O)N[C@@H](CCCNC(=N)N)C(=O)N[C@@H](C)C(=O)NCC(=O)N[C@@H](Cc1c[nH]c2ccccc12)C(N)=O)[C@@H](C)O [9a] (Ac-GG[Asu](NHOH)ARAKAKTRSSRAGW-NH2)",
    "CENSORING_OPERATOR": "=",
    "pEC50": 8.71
  }
]

* * *

Reported values of remaining activity at 50 µM for individual entries
- STUDY_SYSTEM: HDAC4 (Homo sapiens, UniProt P56524)
- Construct: purchased BPS Bioscience 50004
- Sequence (P56524 627-1084): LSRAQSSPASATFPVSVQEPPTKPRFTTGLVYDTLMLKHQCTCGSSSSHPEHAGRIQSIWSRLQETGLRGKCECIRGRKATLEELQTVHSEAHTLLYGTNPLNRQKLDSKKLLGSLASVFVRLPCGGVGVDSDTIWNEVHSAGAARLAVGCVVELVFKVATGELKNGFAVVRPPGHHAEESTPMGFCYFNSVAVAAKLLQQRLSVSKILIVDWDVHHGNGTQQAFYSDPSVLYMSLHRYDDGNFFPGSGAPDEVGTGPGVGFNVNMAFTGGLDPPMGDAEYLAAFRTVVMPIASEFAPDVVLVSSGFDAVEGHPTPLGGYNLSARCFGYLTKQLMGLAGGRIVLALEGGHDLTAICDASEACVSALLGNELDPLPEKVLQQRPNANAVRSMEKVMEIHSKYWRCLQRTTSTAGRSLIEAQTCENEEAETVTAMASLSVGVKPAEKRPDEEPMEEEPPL
- PROTOCOL_TEXT: HDAC inhibition assay (fluorogenic, Ac-Leu-Gly-Lys(Tfa)-AMC)
- Type: biochemical
- PROTOCOL_CONDITIONS: inhibitor 50 µM, 2 internal replicates, read-out: residual enzymatic activity relative to control wells
Non-standard residues stand in square brackets, D forms with d. Residues, ends and D or L forms follow the SMILES beside them. *: point of attachment. Asu = N[C@@H](CCCCCC(=O)O)C(=O)O; NHOH = ON*

[
  {
    "COMPOUND": "CC(=O)N[C@@H](C)C(=O)N[C@H](C(=O)NCC(=O)NCC(=O)N[C@H](C(=O)N[C@@H](CCCCCC(=O)NO)C(=O)N[C@@H](CCCCN)C(=O)N1CCC[C@H]1C(=O)N[C@@H](Cc1c[nH]cn1)C(=O)N[C@@H](CCCNC(=N)N)C(=O)N[C@@H](Cc1ccc(O)cc1)C(=O)N[C@@H](CCCNC(=N)N)C(=O)N1CCC[C@H]1C(=O)NCC(=O)N[C@H](C(=O)N[C@H](C(=O)N[C@@H](Cc1c[nH]c2ccccc12)C(N)=O)C(C)C)[C@@H](C)O)C(C)C)[C@@H](C)O [15a] (Ac-ATGGV[Asu](NHOH)KPHRYRPGTVW-NH2)",
    "remaining activity at 50 µM, %": 89.4
  },
  {
    "COMPOUND": "CC(=O)N1CCC[C@H]1C(=O)N[C@@H](CCCNC(=N)N)C(=O)N[C@@H](CCCCN)C(=O)N[C@@H](CCC(N)=O)C(=O)N[C@@H](CC(C)C)C(=O)N[C@@H](C)C(=O)N[C@H](C(=O)N[C@@H](CCCCN)C(=O)N[C@@H](C)C(=O)N[C@@H](C)C(=O)N[C@@H](CCCNC(=N)N)C(=O)N[C@@H](CCCCCC(=O)NO)C(=O)N[C@@H](CO)C(=O)N[C@@H](C)C(=O)N1CCC[C@H]1C(=O)N[C@@H](C)C(=O)N[C@@H](Cc1c[nH]c2ccccc12)C(N)=O)[C@@H](C)O [14a] (Ac-PRKQLATKAAR[Asu](NHOH)SAPAW-NH2)",
    "remaining activity at 50 µM, %": 41.7
  },
  {
    "COMPOUND": "CC(=O)N[C@@H](C)C(=O)N1CCC[C@H]1C(=O)N[C@@H](C)C(=O)N1CCC[C@H]1C(=O)N[C@@H](CCCCN)C(=O)N[C@@H](CCCCCC(=O)NO)C(=O)NCC(=O)N[C@@H](CO)C(=O)N[C@@H](CCCCN)C(=O)N[C@@H](CCCCN)C(=O)N[C@@H](C)C(=O)N[C@H](C(=O)N[C@H](C(=O)N[C@@H](CCCCN)C(=O)N[C@@H](C)C(=O)N[C@@H](CCC(N)=O)C(=O)N[C@@H](Cc1c[nH]c2ccccc12)C(N)=O)[C@@H](C)O)C(C)C [10a] (Ac-APAPK[Asu](NHOH)GSKKAVTKAQW-NH2)",
    "remaining activity at 50 µM, %": 80.4
  },
  {
    "COMPOUND": "CC(=O)N[C@@H](CC(C)C)C(=O)NCC(=O)N[C@@H](CCCCN)C(=O)NCC(=O)NCC(=O)N[C@@H](C)C(=O)N[C@@H](CCCCCC(=O)NO)C(=O)N[C@@H](CCCNC(=N)N)C(=O)N[C@@H](Cc1c[nH]cn1)C(=O)N[C@@H](CCCNC(=N)N)C(=O)N[C@@H](CCCCN)C(=O)N[C@H](C(=O)N[C@@H](CC(C)C)C(=O)N[C@@H](CCCNC(=N)N)C(=O)N[C@@H](CC(=O)O)C(=O)N[C@@H](CC(N)=O)C(=O)N[C@@H](Cc1c[nH]c2ccccc12)C(N)=O)C(C)C [16a] (Ac-LGKGGA[Asu](NHOH)RHRKVLRDNW-NH2)",
    "remaining activity at 50 µM, %": 67.1
  }
]

The reported measurements were obtained from paper PMC7782793.
